All values here come from patent US20250179073A1.

Test system: MDA-MB-231 cells
assay_remarks: Cell proliferation assay (CellTiter-Glo), MDA-MB-231
Type: cell-based
condition_set: Homo sapiens, MDA-MB-231, 72 h, 72 h treatment, Celltiter-Glo luminescence
pIC50: −log10 of the molar value.
result_type: pIC50

These solved cases illustrate the format of a correct answer.
C[C@@H]1CN(CC(=O)N2CC(C)(C)c3c2cc(Cc2ccc(F)cc2)c2nn(CCO)c(=O)n32)[C@@H](CN2CCOC[C@H]2C)CN1 [Compound 201]; 7.59
Cc1nc2c(Cc3ccc(F)cc3)cc3c(n2c1C)C(C)(C)CN3C(=O)CN1C[C@@H](C)NC[C@@H]1CN1CCOC[C@H]1C [Compound 109]; 7.21
C[C@@H]1CN(CC(=O)N2CC(C)(C)c3c2cc(Cc2ccc(F)cc2)c2nn(Cc4ncn(C)n4)c(=O)n32)[C@@H](CN2CCOC[C@H]2C)CN1 [Compound 232]; 6.48

I = C[C@@H]1CN(CC(=O)N2CC(C)(C)c3c2cc(Cc2ccc(F)cc2)c2nn(C)c(=O)n32)[C@@H](CN2CCOC[C@H]2C)CN1 [Compound 135]
II = C[C@@H]1CN(CC(=O)N2CC(C)(C)c3c2cc(Cc2ccc(F)cc2)n2cnnc32)[C@@H](CN2CCOC[C@H]2C)CN1 [Example 23]
III = C[C@@H]1CN(CC(=O)N2CC(C)(C)c3c2cc(Cc2ccc(F)cc2F)c2nncn32)[C@@H](CN2CCOC[C@H]2C)CN1 [Compound 155]
input: hey, can you rank those compounds up there by pIC50? biggest number first please Answer format: list of labels, ordered as asked.
output: I, II, III
(I: 7.40, II: 6.49, III: 6.14)
